Source: patent US9896481B2

Biological target: ferroportin tagged at the C-terminus with green fluorescent protein (Fpn-GFP) (Mus musculus, UniProt Q9JHI9)
Construct: expressed in transfected cells; host or cells: ECR293/Fpn-GFP (stably transfected, ponasterone-inducible)
Sequence (Q9JHI9 whole entry): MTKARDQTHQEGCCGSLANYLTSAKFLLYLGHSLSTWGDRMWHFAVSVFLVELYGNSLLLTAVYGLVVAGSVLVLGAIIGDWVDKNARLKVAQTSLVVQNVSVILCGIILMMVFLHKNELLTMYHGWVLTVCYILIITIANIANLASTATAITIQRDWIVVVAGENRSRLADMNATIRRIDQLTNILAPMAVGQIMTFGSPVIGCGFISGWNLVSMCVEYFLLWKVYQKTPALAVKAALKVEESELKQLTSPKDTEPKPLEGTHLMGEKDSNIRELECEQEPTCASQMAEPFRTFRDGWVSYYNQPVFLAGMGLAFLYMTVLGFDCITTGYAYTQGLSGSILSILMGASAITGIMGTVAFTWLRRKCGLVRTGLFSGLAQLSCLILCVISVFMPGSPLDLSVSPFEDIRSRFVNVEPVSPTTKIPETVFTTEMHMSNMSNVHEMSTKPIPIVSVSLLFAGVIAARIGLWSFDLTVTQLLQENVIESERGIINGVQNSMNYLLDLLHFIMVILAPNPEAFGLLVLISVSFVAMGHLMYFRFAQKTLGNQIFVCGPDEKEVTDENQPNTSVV
Test: Flow cytometry of ferroportin-GFP degradation in ECR293/Fpn-GFP cells
Assay type: cell-based
Conditions: read-out: EC50 (nM) in vitro; Table 3
Non-standard residues stand in square brackets, D forms with d. Residues, ends and D or L forms follow the SMILES beside them. *: point of attachment. PEG12 = NCCOCCOCCOCCOCCOCCOCCOCCOCCOCCOCCOCCOCCC(=O)O; dDip = N[C@@H](C(=O)O)C(c1ccccc1)c1ccccc1; Palmitoyl = CCCCCCCCCCCCCCCC(=O)*
ATTRIBUTE MEASURED: EC50

Exam item: Quick one: EC50 of CCCCCCCCCCCCCCCC(=O)NCCOCCOCCOCCOCCOCCOCCOCCOCCOCCOCCOCCOCCC(=O)N[C@H](Cc1ccccc1)C(=O)N[C@@H](C(=O)N[C@H](CS)C(=O)N[C@@H](C(=O)N1CCC[C@@H]1C(=O)N[C@@H](C(=O)N[C@H](Cc1c[nH]cn1)C(N)=O)C(c1ccccc1)c1ccccc1)[C@H](C)CC)[C@H](C)CC [PR49, R4-F-I-C-I-P-Dpa-H] ({Palmitoyl-PEG12}-[dF][dI][dC][dI][dP][dDip][dH]-NH2) ?
Marked response: < 10 nM

Exam item: Now the same for CCCCCCCCCCCCCCCC(=O)NCCOCCOCCOCCOCCOCCOCCOCCOCCOCCOCCOCCOCCC(=O)N[C@H](Cc1ccccc1)C(=O)N[C@@H](C(=O)N[C@H](CS)C(=O)N[C@@H](C(=O)N1CCC[C@@H]1C(=O)N[C@@H](C(=O)N[C@H](Cc1c[nH]cn1)C(=O)N[C@@H](C(=O)N[C@H](CC(=O)O)C(N)=O)[C@H](C)O)C(c1ccccc1)c1ccccc1)[C@H](C)CC)[C@H](C)CC [PR47, R4-F-I-C-I-P-Dpa-H-T-D] ({Palmitoyl-PEG12}-[dF][dI][dC][dI][dP][dDip][dH][dT][dD]-NH2)
Marked response: 50 nM

====

Biological target: ferroportin tagged at the C-terminus with green fluorescent protein (Fpn-GFP) (Mus musculus, UniProt Q9JHI9)
Construct: expressed in transfected cells; host or cells: ECR293/Fpn-GFP (stably transfected, ponasterone-inducible)
Experiment: Flow cytometry of ferroportin-GFP degradation in ECR293/Fpn-GFP cells
Type: cell-based
Conditions: read-out: EC50
ATTRIBUTE MEASURED: EC50
Put your answer as a value accompanied by its unit after it.

Exam item: Quick one: EC50 of N=C(N)NCCC[C@@H]1NC(=O)C2CCC(CC2)CNC(=O)[C@@H](C(c2ccccc2)c2ccccc2)NC(=O)C2CCN(CC2)C(=O)[C@@H](N)CSSCCNC(=O)[C@H](C(c2ccccc2)c2ccccc2)NC(=O)C2CCN(CC2)C(=O)C2CCC(CC2)CNC1=O ?
Marked response: 1.5 µM

====

Target: ferroportin tagged at the C-terminus with green fluorescent protein (Fpn-GFP) (Mus musculus, UniProt Q9JHI9)
Construct: expressed in transfected cells; host or cells: ECR293/Fpn-GFP (stably transfected, ponasterone-inducible)
Test: Flow cytometry of ferroportin-GFP degradation in ECR293/Fpn-GFP cells
Assay type: cell-based
Conditions: read-out: EC50 (nM) in vitro; Table 3
Non-standard residues stand in square brackets, D forms with d. Residues, ends and D or L forms follow the SMILES beside them. *: point of attachment. PEG12 = NCCOCCOCCOCCOCCOCCOCCOCCOCCOCCOCCOCCOCCC(=O)O; dDip = N[C@@H](C(=O)O)C(c1ccccc1)c1ccccc1; Palmitoyl = CCCCCCCCCCCCCCCC(=O)*
ATTRIBUTE MEASURED: EC50

Exam item: Quick one: EC50 of CCCCCCCCCCCCCCCC(=O)NCCOCCOCCOCCOCCOCCOCCOCCOCCOCCOCCOCCOCCC(=O)N[C@@H](C(=O)N[C@@H](C(=O)N[C@H](CS)C(=O)N[C@@H](C(=O)N1CCC[C@@H]1C(=O)N[C@@H](C(=O)N[C@H](Cc1c[nH]cn1)C(N)=O)C(c1ccccc1)c1ccccc1)[C@H](C)CC)[C@H](C)CC)C(c1ccccc1)c1ccccc1 [PR50, R4-Dpa-I-C-I-P-Dpa-H] ({Palmitoyl-PEG12}-[dDip][dI][dC][dI][dP][dDip][dH]-NH2) ?
Marked response: < 10 nM
